# study system: DNA polymerase beta (Homo sapiens, UniProt P06746)
test readout: IC50

>>> print(df.to_string())
                                   molecule  test_readout   result
0  O=C1N=C(S)SC1=Cc1ccc(Sc2c(F)c(F)c(C(F)(F)F)c(F)c2F)c([N+](=O)[O-])c1          IC50  > 50 µM
1  Cc1ccc(Sc2ccc(C=C3SC(O)=NC3=O)cc2[N+](=O)[O-])cc1          IC50  > 50 µM
2  Cc1ccc(Sc2ccc(C=C3SC(S)=NC3=O)cc2[N+](=O)[O-])cc1F          IC50  > 50 µM
3    Cc1ccc(Sc2sc(C=C3SC(S)=NC3=O)cc2Br)cc1          IC50  < 50 µM
4    Cc1ccc(Sc2ccc(C=C3SC(S)=NC3=O)cc2F)cc1          IC50  38.7 µM
5  Cc1ccccc1Sc1ccc(C=C2SC(S)=NC2=O)cc1C(F)(F)F          IC50  < 50 µM
6  O=C1N=C(S)SC1=Cc1ccc(Sc2ccc(C(F)(F)F)cc2)c([N+](=O)[O-])c1          IC50  > 50 µM
7   Cc1ccc(Sc2ccc(C=C3SC(S)=NC3=O)cc2Br)cc1          IC50  > 50 µM

Per the records, this molecule ( Cc1ccc(Sc2ccc(C=C3SC(S)=NC3=O)cc2[N+](=O)[O-])cc1 [DNA polymerase inhibitor 1] ) has IC50 equal to 64.4 µM

Per the records, this molecule ( "CCc1ccc(Sc2ccc(C=C3SC(S)=NC3=O)cc2[N+](=O)[O-])cc1" ) has IC50 equal to < 50 µM

Per the records, this molecule ( "O=C1N=C(S)SC1=Cc1ccc(Sc2ccc(OC(F)(F)F)cc2)c([N+](=O)[O-])c1" ) has IC50 equal to > 50 µM
